test-name: reversal of MRP1-mediated doxorubicin resistance, pilot screen, H69AR cells, doxorubicin co-treatment (AID 601)
assay-setup: H69AR cells, CellTiter-Glo, 72 h; compound alone cytotoxicity; at 10 µM
readout-label: viability
Write your answer as a measured quantity: the number, then the unit.

Record excerpt, results attached:
Sure, the documented viability for Cn1cnnc1Sc1nc2c(c(=O)n(C)c(=O)n2C)n1Cc1ccccc1Cl is 90.3%

Item: CCc1ccccc1N1C(=O)C2CC(C)=C(C)CC2C1=O (centres undefined) | viability: 103%

The molecule identified as O=C(c1ccc(Br)o1)N1CCN(c2ccc3nnc(-c4ccccc4)n3n2)CC1 registered its viability at 75.8%

Measured viability of Cc1ccc(-n2nnnc2SCC(=O)N2CCc3ccccc3C2)cc1 : 82.1%

The molecule identified as Cc1cc2c(cc(C(=O)OCC(=O)NCc3cccs3)n2C(C)C)o1 registered its viability at 21.7%

# viability of Cc1cccc(N(C)C(=O)c2coc(=O)c3ccccc23)c1 = 85.8%

***
// O=C(COc1ccc(S(=O)(=O)NC2CCCCC2)cc1)NCc1ccccn1 : viability value = 85.6%

The reported viability of the molecule CCCSc1ccc2nc(NC(=O)OC)[nH]c2c1 was 20.3%

// field: viability; key: Cc1cccc(C)c1OCC(=O)Nc1cccc(NC(=O)c2ccco2)c1 ; value = 84.6%

For reference, reported viability for COCCCNC(=O)C1CCN(C(=O)Nc2ccc(Cl)cc2)CC1 stands at 99%

So for CCCn1nnc(NCc2ccc(OCc3cccs3)c(OC)c2)n1 , the logged viability turned out to be 96.5%

// viability value for NS(=O)(=O)c1cc2c(cc1Cl)NCNS2(=O)=O : 91.3%

The value of viability measured for the molecule O=C(c1cc(-c2cccc(O)c2)on1)N1CCN(C(c2ccccc2)c2ccccc2)CC1 turned out to be 26.8%

Entry CC(C)(C)n1nnnc1C(c1cccc(C#N)c1)N1CCC(Cc2ccccc2)CC1 (centres undefined) ; viability = 86.1%

// viability value for Cc1cc(=O)n2nc(N3CCCC(C(=O)N4CCc5ccccc54)C3)sc2n1 (centres undefined) : 85.8%

viability measured on O=[N+]([O-])c1cccc2cn[nH]c12 = 99.5%

The reported value for CCN=C1SC(CC(=O)Nc2ccccc2OCC)C(=O)N1CC (centres undefined) in terms of viability is 94.5%

The measured viability associated with Oc1c(Cl)cc(Cl)cc1Sc1cc(Cl)cc(Cl)c1O reads 11.4%

Lookup result for COc1ccccc1C1/C(=C(/O)c2ccccc2)C(=O)C(=O)N1CC(C)C (centres undefined) ; measured viability: 82.1%
